study.system: Full length human recombinant HDAC11 (Homo sapiens (Human), UniProt Q96DB2)
Sequence (Q96DB2 whole entry): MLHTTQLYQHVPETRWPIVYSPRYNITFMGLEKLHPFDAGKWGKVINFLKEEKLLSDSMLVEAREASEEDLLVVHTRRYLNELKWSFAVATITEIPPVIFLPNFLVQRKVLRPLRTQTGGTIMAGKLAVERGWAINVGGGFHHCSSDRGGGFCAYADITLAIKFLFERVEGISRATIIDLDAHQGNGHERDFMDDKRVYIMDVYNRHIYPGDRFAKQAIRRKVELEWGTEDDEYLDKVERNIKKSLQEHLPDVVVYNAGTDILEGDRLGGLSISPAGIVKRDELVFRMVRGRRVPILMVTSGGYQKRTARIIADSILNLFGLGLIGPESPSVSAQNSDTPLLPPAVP
test.name: Enzymatic HDAC11 assay, electrophoretic mobility shift
experimental.parameters: substrate FAM-RHKK(tri-fluor-Ac)-NH2, read-out: HDAC11 IC50 Range

>  <compound>
O=C(NO)c1cccc2c1CC1(CCN(Cc3cccc(C(F)(F)F)c3)C1=O)C2 (centres unmarked)

>  <IC50>
< 0.5 µM

$$$$
>  <compound>
O=C(NO)c1cccc2c1CC1(CCN(Cc3cccc(Cl)c3)C1=O)C2 (centres unmarked)

>  <IC50>
< 0.5 µM

$$$$
>  <compound>
O=C(NO)c1cccc2c1CC1(CCN(Cc3cn(-c4ccccc4)nn3)C1=O)C2 (centres unmarked)

>  <IC50>
> 1 µM

$$$$
>  <compound>
O=C(NO)c1cccc2c1CC1(CC2)CCN(Cc2ccc(Cl)c(C(F)(F)F)c2)C1=O (centres unmarked)

>  <IC50>
< 0.5 µM

$$$$
>  <compound>
O=C(NO)c1cccc2c1CC1(CCN(Cc3cc(F)cc(F)c3)C1=O)C2 (centres unmarked)

>  <IC50>
> 1 µM

$$$$
>  <compound>
COc1cc(CN2CCC3(Cc4cccc(C(=O)NO)c4C3)C2=O)cc(OC)c1 (centres unmarked)

>  <IC50>
> 1 µM

$$$$
>  <compound>
O=C(NO)c1cccc2c1CC1(CCN(Cc3ccccc3OC(F)(F)F)C1=O)C2 (centres unmarked)

>  <IC50>
0.5 to 1 µM

$$$$
>  <compound>
O=C(NO)c1cccc2c1CC1(CCN(Cc3cc(-c4ccccc4)no3)C1=O)C2 (centres unmarked)

>  <IC50>
> 1 µM

$$$$
>  <compound>
O=C(NO)c1cccc2c1CC1(CCN(C(=O)c3ccc(Cl)cc3)CC1)C2

>  <IC50>
> 1 µM

$$$$
>  <compound>
O=C(NO)c1cccc2c1CC1(CCN(C3CC3)CC1)C2

>  <IC50>
> 1 µM

$$$$
>  <compound>
O=C(NO)c1cccc2c1CC1(CCN(Cc3cccc(OC(F)(F)F)c3)C1=O)C2 (centres unmarked)

>  <IC50>
< 0.5 µM

$$$$
>  <compound>
O=C(NO)c1cccc2c1CCC1(CCN(Cc3ccc(Cl)c(C(F)(F)F)c3)C1=O)C2 (centres unmarked)

>  <IC50>
< 0.5 µM

$$$$
>  <compound>
O=C(NO)c1cccc2c1CC1(CCN(Cc3ccccc3)CC1)C2O (centres unmarked)

>  <IC50>
> 1 µM

$$$$
>  <compound>
CC(=O)N1CCC2(Cc3cccc(C(=O)NO)c3C2)C1 (centres unmarked)

>  <IC50>
> 1 µM

$$$$
>  <compound>
O=C(NO)c1cccc2c1CC1(CCN(c3cccc(C(F)(F)F)c3)C1=O)C2 (centres unmarked)

>  <IC50>
0.5 to 1 µM

$$$$
>  <compound>
COc1ccccc1CN1CCC2(Cc3cccc(C(=O)NO)c3C2)C1=O (centres unmarked)

>  <IC50>
> 1 µM

$$$$
>  <compound>
CC(=O)N1CCC2(CCc3c(cccc3C(=O)NO)O2)CC1

>  <IC50>
> 1 µM

$$$$
>  <compound>
O=C(NO)c1cccc2c1CC1(CCN(Cc3ccccc3Cl)C1=O)C2 (centres unmarked)

>  <IC50>
> 1 µM

$$$$
>  <compound>
O=C(NO)c1cccc2c1C[C@]1(CCN(Cc3ccc(Cl)c(C(F)(F)F)c3)C1=O)C2

>  <IC50>
< 0.5 µM

$$$$
>  <compound>
O=C(NO)c1cccc2c1CC1(CCN(Cc3ccc(OCc4ccccc4)cc3)C1=O)C2 (centres unmarked)

>  <IC50>
< 0.5 µM

$$$$
>  <compound>
Cc1cccc(CN2CCC3(Cc4cccc(C(=O)NO)c4C3)C2=O)c1 (centres unmarked)

>  <IC50>
0.5 to 1 µM

$$$$
>  <compound>
COc1cccc(CN2CCC3(Cc4cccc(C(=O)NO)c4C3)C2=O)c1 (centres unmarked)

>  <IC50>
> 1 µM

$$$$
>  <compound>
O=C(NO)c1cccc2c1CC1(CCN(Cc3ccc(Cl)cc3)C1=O)C2 (centres unmarked)

>  <IC50>
< 0.5 µM

$$$$
>  <compound>
Cc1ccc(N2CCC3(CCc4cccc(C(=O)NO)c4O3)CC2)cc1F

>  <IC50>
> 1 µM

$$$$
>  <compound>
O=C(NO)c1cccc2c1CC1(CCN(Cc3ccc(OC(F)(F)F)cc3)C1=O)C2 (centres unmarked)

>  <IC50>
< 0.5 µM

$$$$
>  <compound>
O=C(NO)c1cccc2c1CC1(CC2)CCN(Cc2ccc(Cl)cc2)C1=O (centres unmarked)

>  <IC50>
> 1 µM

$$$$
>  <compound>
O=C(NO)c1cccc2c1CC1(CCN(Cc3cccc(C(F)(F)F)c3F)C1=O)C2 (centres unmarked)

>  <IC50>
< 0.5 µM

$$$$
>  <compound>
Cc1ccc(CN2CCC3(Cc4cccc(C(=O)NO)c4C3)C2=O)cc1C (centres unmarked)

>  <IC50>
0.5 to 1 µM

$$$$
>  <compound>
Cc1ccccc1CN1CCC2(Cc3cccc(C(=O)NO)c3C2)C1=O (centres unmarked)

>  <IC50>
> 1 µM

$$$$
>  <compound>
CN1CCC2(Cc3cccc(C(=O)NO)c3C2)C1=O (centres unmarked)

>  <IC50>
> 1 µM

$$$$
>  <compound>
O=C(NO)c1cccc2c1CCC1(CCN(c3ccc(F)cc3)CC1)O2

>  <IC50>
> 1 µM

$$$$
>  <compound>
O=C(NO)c1cccc2c1CC1(CCN(Cc3ccc(Cl)cc3)CC1)C2

>  <IC50>
> 1 µM

$$$$
>  <compound>
CS(=O)(=O)c1ccc(CN2CCC3(Cc4cccc(C(=O)NO)c4C3)C2=O)cc1 (centres unmarked)

>  <IC50>
> 1 µM

$$$$
>  <compound>
O=C(NO)c1cccc2c1CCC1(CCN(Cc3ccc(C(F)(F)F)cc3)C1=O)C2 (centres unmarked)

>  <IC50>
< 0.5 µM

$$$$
>  <compound>
O=C(NO)c1cccc2c1CC1(CCN(Cc3ccc(-n4cccn4)nc3)C1=O)C2 (centres unmarked)

>  <IC50>
> 1 µM

$$$$
>  <compound>
COc1ccc(CN2CCC3(Cc4cccc(C(=O)NO)c4C3)C2=O)cc1 (centres unmarked)

>  <IC50>
> 1 µM

$$$$
>  <compound>
O=C(NO)c1cccc2c1CCC1(CCN(Cc3ccc(C(F)(F)F)c(F)c3)C1=O)C2 (centres unmarked)

>  <IC50>
< 0.5 µM

$$$$
>  <compound>
O=C(NO)c1cccc2c1CC1(CCN(C3CC3)C1)C2 (centres unmarked)

>  <IC50>
> 1 µM

$$$$

Entry source: patent US10508088B2
